assay: NCI Yeast Anticancer Drug Screen. Data for the mlh1 rad18 strain (AID 175); conditions: S. cerevisiae mlh1 rad18 strain growth inhibition; at 50.0 µM; stronger effect = higher value
The panel holds about 79,000 compounds, 15% with a hit somewhere; the sample as a whole holds those more often.
measuredQuantity: growth inhibition (%)
Only the number, expressed in %, is required.

growth inhibition lookup needed for C=CCc1c(Cl)nc(Cl)nc1Cl , thanks. -23.6

Same question, S=C(S)N(Cc1ccccc1)Cc1ccccc1 (tested in a mixture with another compound) this time -2.05

Same question, N#CCCC1(c2ccccc2)CCC/C(=C/c2ccccc2)C1=O (stereo not drawn) this time 3

Same question, CC(C)(C)n1nc(C2CC2)cc1NC(=O)Nc1ccc(Cl)cc1 this time 2.4

Same question, CC(=O)c1ccccc1NCC(=O)Nn1cnc2ccc(S(=O)(=O)Nc3ccccc3C(C)=O)cc2c1=O this time 7.6

Same question, CC1(C)OC2C(CNS(C)(=O)=O)OC(n3cnc4c(N)ncnc43)C2O1 (stereo not drawn) this time -13.2

Same question, CC(=O)CC(=O)NC(C)(C)CC(C)(C)C this time -9.55

Same question, Cc1cc2nc(/C(C#N)=C/c3cc(Cl)cc(Cl)c3O)[nH]c2cc1C this time -3.35

Same question, CCn1c2ccccc2c2c3ncc4cccn4c3ccc21 this time 27.8

Same question, c1ccc(CCN(CCc2ccccn2)CCc2ccccn2)nc1 this time 18

Same question, Cc1cc(C)c2c(c1)CSCc1cc(C)cc(C)c1-2 this time 16.1

Same question, Cc1ccc(C2=CSc3ccccc3N2)cc1 this time 29.2

Same question, C(=C\C1OCCO1)/c1ccccc1 this time -3

Same question, ClCc1nnc(-c2ccccc2)o1 this time -4.75

Same question, CC1(C)OCC(C2OC(C)(C)OC2C(CO)Nc2ccc([N+](=O)[O-])cc2[N+](=O)[O-])O1 (stereo not drawn) this time 49.1

Same question, CC(C)(C)OC(=O)CNC(=O)C(CSC(c1ccccc1)c1ccccc1)NC(=O)CNC(=O)C(CCCCNC(=O)OCc1ccccc1)NC(=O)CNC(=O)C(CSC(c1ccccc1)(c1ccccc1)c1ccccc1)NC(=O)OCc1ccccc1 (stereo not drawn) this time -4.2

Same question, COc1ccc2c(c1)CC/C(=C\c1ccccn1)C2=O this time 14.4

Same question, CSc1nn(C)c2cc(C)c3ccccc3[n+]12 this time -16.4
